Cited source: patent US20250270343A1

Molecular target: T1, soluble mouse GPNMB-Fc polypeptide (mouse IgG2A Fc) (mouse, UniProt Q99P91 23-502)
T1 construct: extracellular domain; bought (R&D System); also called moGPNMB-Fc; mGPNMB-Fc; not shown: Fc region of mouse IgG2A
T1 sequence (looked up): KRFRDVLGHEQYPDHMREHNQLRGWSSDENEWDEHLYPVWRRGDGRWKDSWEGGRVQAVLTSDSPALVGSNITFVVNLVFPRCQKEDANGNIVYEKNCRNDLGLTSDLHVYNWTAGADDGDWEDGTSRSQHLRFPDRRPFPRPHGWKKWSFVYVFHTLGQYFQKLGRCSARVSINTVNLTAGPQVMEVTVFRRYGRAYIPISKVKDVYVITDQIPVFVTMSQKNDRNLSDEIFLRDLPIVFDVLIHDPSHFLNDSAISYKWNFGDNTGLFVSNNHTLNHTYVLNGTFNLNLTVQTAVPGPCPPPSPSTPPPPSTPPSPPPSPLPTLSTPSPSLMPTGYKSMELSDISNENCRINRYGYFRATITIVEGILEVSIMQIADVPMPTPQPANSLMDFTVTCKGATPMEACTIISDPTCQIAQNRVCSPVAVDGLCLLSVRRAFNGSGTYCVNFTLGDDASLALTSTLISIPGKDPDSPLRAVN
Assay: FACS, blocking of mGPNMB-Fc binding to SVEC cells
Listed binders paired with reported IC50
Value kind: IC50 (nM)

binder="anti-GPNMB antibody GPN-85 (antibody, V domains shown) VH: QVQLQESGPGLVKPSETLSLTCTVSGISITTGNYRWSWIRQPPGKGLEWIGYIDYSGTITYNPSLKQRVTITRDTSKNQFSLELSSVTAADTAVYYCARDLTHWYFDVWGQGTLVTVSS VL: DIVMTQSPDSLAVSLGERATINCKSSRSVDYFGIGFLNWYQQKPGQPPKLLIYATSHQGSGVPDRFSGSGSGTDFTLTISSLQAEDVAVYYCQQQKEVPPTFGGGTKVEIK" observed_result=1.51
binder="anti-GPNMB antibody GPN-83 (antibody, V domains shown) VH: QVQLQESGPGLVKPSETLSLTCTVSGISITTGNYRWSWIRQPPGKGLEWIGYIDYSGTITYNPSLKSRVTITRDTSKNQFSLELSSVTAADTAVYYCARDLTHWYFDVWGQGTLVTVSS VL: DIVMTQSPDSLAVSLGERATINCKSSRSVDYYGIGFVNWYQQKPGQPPKLLIYATSIQGSGVPDRFSGSGSGTDFTLTISSLQAEDVAVYYCQQQKEVPPTFGGGTKVEIK" observed_result=1.49
binder="anti-GPNMB antibody GPN-86 (antibody, V domains shown) VH: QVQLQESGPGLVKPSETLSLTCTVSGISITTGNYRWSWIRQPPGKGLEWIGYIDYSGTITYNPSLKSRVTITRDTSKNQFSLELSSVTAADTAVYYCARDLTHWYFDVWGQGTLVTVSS VL: DIVMTQSPDSLAVSLGERATINCKSSRSVDYYGIGFLNWYQQKPGQPPKLLIYATSKQGSGVPDRFSGSGSGTDFTLTISSLQAEDVAVYYCQQQKEVPPTFGGGTKVEIK" observed_result=1.26
binder="anti-GPNMB antibody GPN-84 (antibody, V domains shown) VH: QVQLQESGPGLVKPSETLSLTCTVSGISITTGNYRWSWIRQPPGKGLEWIGYIDYSGTITYNPSLKSRVTITRDTSKNQFSLELSSVTAADTAVYYCARDLTHWYYDVWGQGTLVTVSS VL: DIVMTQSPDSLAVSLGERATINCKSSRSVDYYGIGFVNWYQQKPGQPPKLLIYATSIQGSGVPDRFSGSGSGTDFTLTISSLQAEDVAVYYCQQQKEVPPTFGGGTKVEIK" observed_result=1.44
binder="anti-GPNMB antibody GPN-91 (antibody, V domains shown) VH: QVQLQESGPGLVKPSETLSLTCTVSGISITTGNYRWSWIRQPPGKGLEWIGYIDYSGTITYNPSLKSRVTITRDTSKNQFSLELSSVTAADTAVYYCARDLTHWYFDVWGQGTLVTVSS VL: DIVMTQSPDSLAVSLGERATINCKSSRSVDYYGIGFLNWYQQKPGQPPKLLIYATSHQGSGVPDRFSGSGSGTDFTLTISSLQAEDVAVYYCQQQKERPPTFGGGTKVEIK" observed_result=0.64
binder="anti-GPNMB antibody GPN-89 (antibody, V domains shown) VH: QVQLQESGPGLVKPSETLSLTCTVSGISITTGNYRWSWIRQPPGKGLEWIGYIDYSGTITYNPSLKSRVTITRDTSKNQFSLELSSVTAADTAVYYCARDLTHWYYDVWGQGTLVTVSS VL: DIVMTQSPDSLAVSLGERATINCKSSRSVDYYGIGFLNWYQQKPGQPPKLLIYATSHQGSGVPDRFSGSGSGTDFTLTISSLQAEDVAVYYCQQQKEVPPTFGGGTKVEIK" observed_result=1.18
